- System: Velvetleaf (VELE)
- Assay type: in vivo, Abutilon theophrasti
- Experimental setup: […]; observed 9 days later (Table 29)

Molecule	% Inhibition VELE, %
CC1(C)OC(Cc2ccccc2)CN1C(=O)C(Cl)Cl (stereo not shown)	85
CC1(C)OC(c2cccnc2)CN1C(=O)C(Cl)Cl (stereo not shown)	85
O=C(C(Cl)Cl)N1CCCC12CCCC2	95
O=C(C(Cl)Cl)N1CCc2ccccc2C1c1ccccc1 (stereo not shown)	90
C[n+]1cccc(C2CN(C(=O)C(Cl)Cl)C(C)(C)O2)c1 (stereo not shown)	90
CC1(C)OC(c2cc3ccccc3o2)CN1C(=O)C(Cl)Cl (stereo not shown)	95
CC1Cc2ccccc2C(C)N1C(=O)C(Cl)Cl (stereo not shown)	90
CC(C)CC1c2ccccc2CCN1C(=O)C(Cl)Cl (stereo not shown)	90
Cn1cccc1C1CN(C(=O)C(Cl)Cl)C(C)(C)O1 (stereo not shown)	90
O=C(C(Cl)Cl)N1CCN(C(=O)C(Cl)Cl)CC1	95
